molecular target: DivL(523–769) (Caulobacter vibrioides, UniProt Q9RQQ9); construct: DHp-CA domains only (no PAS domains), residues 523-769, N-terminal His6, E. coli Rosetta (DE3) pLysS, homodimer in solution; assay: fluorescence titration of TNP-ATP with DivL; settings: read-out: apparent binding constant
Sequence (Q9RQQ9 523-769): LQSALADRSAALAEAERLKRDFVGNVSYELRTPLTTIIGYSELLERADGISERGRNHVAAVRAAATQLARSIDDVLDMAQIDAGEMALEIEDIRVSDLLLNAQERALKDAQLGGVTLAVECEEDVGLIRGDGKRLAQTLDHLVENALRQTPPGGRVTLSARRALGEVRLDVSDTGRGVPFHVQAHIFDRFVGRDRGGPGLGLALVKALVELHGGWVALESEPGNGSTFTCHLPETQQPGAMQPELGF
observation_type: pKd
# pKd = -log10(concentration in molar units)

Exam item: Retrieve pKd measured for Nc1ncnc2c1ncn2[C@@H]1O[C@H](COP(=O)(O)OP(=O)(O)OP(=O)(O)O)[C@H]2OC3(O[C@H]21)C([N+](=O)[O-])=CC(=[N+]([O-])O)C=C3[N+](=O)[O-] (stereo partly shown) [TNP-ATP] and print it.
Marked response: 4.24
